As shown below, each of these compounds has a reported Potency value.
Molecular target: Glucocorticoid receptor (Homo sapiens)
Assay: GR-GFP Redistribution (AID 450); further: potency means the concentration at half of the fitted maximal effect
Settings: U2OS GR-GFP nuclear translocation, laser cytometry, 2 h; series mostly up to 20.6 µM
Calls of active or inactive are those of the source.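 How the source made its calls: active means compounds whose dose series gives a full or clear partial fitted curve of increased nuclear translocation; inconclusive means weak partial curve or effect only at the top dose; inactive means no dose-dependent translocation response.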

These solved cases illustrate the format of a correct answer.
compound: Cc1ccc(C[C@H](Cc2nc3ccccc3[nH]2)c2nc3ccccc3[nH]2)cc1
Potency: > 46 µM (inactive)
//
compound: Cc1nnc(SCCC#N)n(CCC#N)c1=O
Potency: > 20.6 µM (inactive)
//
compound: N#Cc1c(SCC(=O)O)nc(N2CCCCC2)c2c1CCCC2
Potency: > 20.6 µM (inactive)
//
compound: CCOC(=O)c1[nH]c2cc(OC)c(OC)cc2c1NC(=O)C(C)N1CCN(Cc2ccccc2)CC1 (centres undefined)
Potency: > 20.6 µM (inactive)
//
compound: O=S(CCc1ccncc1)Cc1ccccc1 (centres undefined)
Potency: > 20.6 µM (inactive)

In: Identify Potency associated with the compound O=S(=O)(c1ccccc1)N1CCC(N2CCN(c3ccccc3)CC2)CC1
Out: > 20.6 µM (inactive)

In: Identify Potency associated with the compound C=CCn1c(=S)[nH]c2nc3c(cc2c1=O)COC(C)(C)C3
Out: > 20.6 µM (inactive)

In: Identify Potency associated with the compound COc1ccccc1-c1c(C)oc2c(CN3CCN(C)CC3)c(O)ccc2c1=O
Out: > 20.6 µM (inactive)

In: Identify Potency associated with the compound O=C1C=CC2=C3c4cc(O)c(O)cc4C[C@@]3(O)COC2=C1O
Out: > 46 µM (inactive)
